Test system: TT medullary thyroid carcinoma cells, harboring a mutated RET-C634W receptor
Assay: In Vitro Cell Proliferation Assay (TT)
Format: cell-based
Conditions: Homo sapiens; 144 hours exposure, CellTiterGlo
Recorded Endpoint: IC50 (µM)

CN(C)[C@H]1CCN(Cc2ccc(NC(=O)Cc3cccc(C#Cc4cnc(N)nc4-c4cc5c(n4C)CCNC5=O)c3)cc2C(F)(F)F)C1 [Cmpd 150] :: 0.006

A. CCN1CCN(Cc2ccc(NC(=O)c3cccc(C#Cc4cnc(N)nc4-c4cc5c(n4C)CCNC5=O)c3)cc2C(F)(F)F)CC1 [Cmpd 48]
B. CCN1CCN(Cc2ccc(NC(=O)Nc3ccc(C#Cc4cnc(N)nc4-c4cc5c(n4C)CCNC5=O)cc3)cc2C(F)(F)F)CC1 [Cmpd 30]
Please compare: A and B . Report which one has the smaller IC50 value. When you have decided, please share the label of that item.
A
(A: 0.0005 µM, B: 0.008 µM)

###

Assay: High-Throughput Solubility Assay
Format: physicochemical
Details: kinetic from dmso stock; pH 7, aqueous potassium phosphate buffer, nominal 200 μM, 24 h at room temperature
Recorded Endpoint: solubility at 24 h (µM)

Please review the entries below; each comes with its answer.
CN1CCCN(Cc2ccc(NC(=O)Cc3cccc(C#Cc4cnc(N)nc4-c4cc5c(n4C)CCNC5=O)c3)cc2C(F)(F)F)CC1 :: 30.4
CCN1CCN(Cc2ccc(NC(=O)Cc3cccc(C#Cc4cnc(NC)nc4-c4cc5c(n4C)CCNC5=O)c3)cc2C(F)(F)F)CC1 :: 1.4

I. CCN1CCN(Cc2ccc(NC(=O)c3cccc(C#Cc4cnc(N)nc4-c4cc5c(n4C)CCNC5=O)c3)cc2C(F)(F)F)CC1
II. CCCN1CCN(Cc2ccc(NC(=O)Cc3cccc(C#Cc4cnc(N)nc4-c4cc5c(n4C)CCNC5=O)c3)cc2C(F)(F)F)CC1
III. CCN1CCN(Cc2ccc(NC(=O)N3CCc4ccc(C#Cc5cnc(N)nc5-c5cc6c(n5C)CCNC6=O)cc43)cc2C(F)(F)F)CC1
Ascending by solubility at 24 h, please. Your task in answering is to list the labels in the requested order.
III, II, I
(III: 4.7 µM, II: 8.9 µM, I: 26.9 µM)

###

Assay: High-Throughput Solubility Assay
Type: physicochemical
Details: kinetic from dmso stock; pH 7, aqueous potassium phosphate buffer, nominal 200 μM, 24 h at room temperature
Recorded Endpoint: solubility at 24 h (µM)

1. CCN1CCN(Cc2ccc(NC(=O)Nc3ccc(C#Cc4cnc(N)nc4-c4cc5c(n4C)CCNC5=O)cc3)cc2C(F)(F)F)CC1
2. Cn1nc(C(C)(C)C)cc1NC(=O)Cc1cccc(C#Cc2cnc(N)nc2-c2cc3c(n2C)CCNC3=O)c1
3. CNc1ncc(C#Cc2cccc(CC(=O)Nc3ccc(CN4CCN(C)CC4)c(C(F)(F)F)c3)c2)c(-c2cc3c(n2C)CCNC3=O)n1
Sort low-to-high on solubility at 24 h, please. Your task in answering is to list the labels in the requested order.
1, 3, 2
(1: 1.7 µM, 3: 3.5 µM, 2: 15.3 µM)

###

Test system: MZ-CRC-1 medullary thyroid carcinoma cells, harboring a mutated RET-M918T receptor
Assay: In Vitro Cell Proliferation Assay (MZ-CRC-1)
Assay type: cell-based
Details: Homo sapiens, 144 hours exposure, CellTiterGlo
Recorded Endpoint: IC50 (µM)

CNc1ncc(C#Cc2cccc(CC(=O)Nc3ccc(CN4CCN(C(C)C)CC4)c(C(F)(F)F)c3)c2)c(-c2cc3c(n2C)CCNC3=O)n1 :: 0.023

a. Cn1c(-c2nc(N)ncc2C#Cc2cccc(NC(=O)Nc3ccc(C(F)(F)F)cc3)c2)cc2c1CCNC2=O [Reference cmpd, reference compound]
b. CCN1CCN(Cc2ccc(NC(=O)c3cccc(C#Cc4cnc(N)nc4-c4cc5c(n4C)CCNC5=O)c3)cc2C(F)(F)F)CC1
c. CCN1CCN(Cc2ccc(NC(=O)Cc3cccc(C#Cc4cnc(NC)nc4-c4cc5c(n4C)CCNC5=O)c3)cc2C(F)(F)F)CC1
d. CNc1ncc(C#Cc2cccc(CC(=O)Nc3ccc(CN4CCN(C)CC4)c(C(F)(F)F)c3)c2)c(-c2cc3c(n2C)CCNC3=O)n1
Highest IC50 first, then in falling order down to the smallest. Your task in answering is to list the labels in the requested order.
a, c, d, b
